- condition label: human
Overview of reported Hepatotoxicity (granulomatous hepatitis) across a group of molecules:
Keep the answer to the number alone.

Study these solved cases before continuing.
- molecule: "Nc1nc(F)nc2c1ncn2[C@@H]1O[C@H](CO)[C@@H](O)[C@@H]1O"
  Hepatotoxicity (granulomatous hepatitis): 0
- molecule: "CCN(CC)CC(=O)Oc1ccc(NC(C)=O)cc1"
  Hepatotoxicity (granulomatous hepatitis): 0
- molecule: "CCN1CCN(C(=O)N[C@@H](C(=O)N[C@@H]2C(=O)N3C(C(=O)O)=C(CSc4nnnn4C)CS[C@H]23)c2ccc(O)cc2)C(=O)C1=O"
  Hepatotoxicity (granulomatous hepatitis): 0

Please supply the value of reported Hepatotoxicity (granulomatous hepatitis) for the item O=c1[nH]c(=O)n([C@@H]2O[C@H](CO)[C@@H](O)[C@@H]2O)cc1/C=C/Br 0

Please supply the value of reported Hepatotoxicity (granulomatous hepatitis) for the item Cc1ccnc2c1NC(=O)c1cccnc1N2C1CC1 0

Please supply the value of reported Hepatotoxicity (granulomatous hepatitis) for the item CCC[C@H](N[C@@H](C)C(=O)N1[C@H](C(=O)O)C[C@@H]2CCCC[C@@H]21)C(=O)OCC 0

Please supply the value of reported Hepatotoxicity (granulomatous hepatitis) for the item CCCNC(=O)NS(=O)(=O)c1ccc(Cl)cc1 [CHLORPROPAMIDE] 4

Please supply the value of reported Hepatotoxicity (granulomatous hepatitis) for the item FC(F)OC(F)(F)C(F)Cl (centres undefined) 1

Please supply the value of reported Hepatotoxicity (granulomatous hepatitis) for the item N=C(N)NCCCCCCC(=O)NC(O)C(=O)NCCCCNCCCN (centres undefined) 0

* * *

Overview of reported Hepatotoxicity (severe hepatitis) across a group of compounds:
- condition label: human
Keep the answer to the number alone.

Please supply the value of reported Hepatotoxicity (severe hepatitis) for the item NCC1CC(=O)N(Cc2ccccc2)C1 (stereo not given) 0

Please supply the value of reported Hepatotoxicity (severe hepatitis) for the item O=C1Cc2cc(CCN3CCN(c4nsc5ccccc45)CC3)c(Cl)cc2N1 0

Please supply the value of reported Hepatotoxicity (severe hepatitis) for the item CC(C(=O)O)c1ccc(CC2CCCC2=O)cc1 (stereo not given) 1

Please supply the value of reported Hepatotoxicity (severe hepatitis) for the item CC(=O)CC(c1ccccc1)c1c(O)c2ccccc2oc1=O (stereo not given) 0

Please supply the value of reported Hepatotoxicity (severe hepatitis) for the item NCCCC(N)(C(=O)O)C(F)F (stereo not given) 0

* * *

- condition label: human
Overview of reported Hepatotoxicity (steatosis) across a group of compounds:
Keep the answer to the number alone.

Study these solved cases before continuing.
- compound: "COC(=O)[C@H]1[C@H]2C[C@@H]3c4[nH]c5cc(OC)ccc5c4CCN3C[C@H]2C[C@@H](OC(=O)c2cc(OC)c(OC)c(OC)c2)[C@@H]1OC"
  Hepatotoxicity (steatosis): 0
- compound: "C=CCC1(CC(C)C)C(=O)NC(=O)NC1=O"
  Hepatotoxicity (steatosis): 0
- compound: "NC(=O)c1ncn([C@@H]2O[C@H](CO)[C@@H](O)[C@H]2O)n1"
  Hepatotoxicity (steatosis): 1
- compound: "CCc1cc2c(s1)N(C)C(=O)CN=C2c1ccccc1Cl"
  Hepatotoxicity (steatosis): 0
- compound: "Nc1ccn([C@@H]2O[C@H](CO)[C@@H](O)C2(F)F)c(=O)n1"
  Hepatotoxicity (steatosis): 0
- compound: "C1CCC(C(CC2CCCCN2)C2CCCCC2)CC1 (stereo not drawn)"
  Hepatotoxicity (steatosis): 10

Please supply the value of reported Hepatotoxicity (steatosis) for the item CC[N+](C)(C/C=C/C1=C(C(=O)[O-])N2C(=O)[C@@H](NC(=O)/C(=N\OCF)c3nsc(N)n3)[C@H]2SC1)CC(N)=O (stereo partly drawn) 0

Please supply the value of reported Hepatotoxicity (steatosis) for the item CN1CCN2c3ccccc3Cc3ccccc3C2C1 (stereo not drawn) 0

* * *

Overview of reported Hepatotoxicity (choleostasis) across a group of molecules:
- condition label: human
Keep the answer to the number alone.

Study these solved cases before continuing.
- molecule: "CC(=O)CC(c1ccc([N+](=O)[O-])cc1)c1c(O)c2ccccc2oc1=O (configuration not stated)"
  value observed: 6
- molecule: "COc1cccc2c1C(=O)c1c(O)c3c(c(O)c1C2=O)C[C@@](O)(C(=O)CO)C[C@@H]3O[C@H]1C[C@H](N)[C@@H](O)[C@H](C)O1 [EPIRUBICIN]"
  value observed: 0
- molecule: "CC(=O)OCC1=C(C(=O)O)N2C(=O)[C@@H](NC(=O)CC#N)[C@H]2SC1"
  value observed: 0
- molecule: "C[C@H]1[C@H](OC(=O)CCC(=O)O)O[C@@H]2O[C@@]3(C)CC[C@H]4[C@H](C)CC[C@@H]1[C@@]24OO3 [ARTESUNATE]"
  value observed: 0
- molecule: "C=CC1=C(C(=O)O)N2C(=O)[C@@H](NC(=O)/C(=N\\OCC(=O)O)c3csc(N)n3)[C@H]2SC1"
  value observed: 1

Please supply the value of reported Hepatotoxicity (choleostasis) for the item CCCCNC(=O)NS(=O)(=O)c1ccc(N)cc1 [CARBUTAMIDE] 0

Please supply the value of reported Hepatotoxicity (choleostasis) for the item O=C1C(CC[S+]([O-])c2ccccc2)C(=O)N(c2ccccc2)N1c1ccccc1 (configuration not stated) 1

Please supply the value of reported Hepatotoxicity (choleostasis) for the item COc1ccc(CCN(C)CCCC2(c3ccc(OC)c(OC)c3)S(=O)(=O)CCCS2(=O)=O)cc1OC 1

* * *

- experiment: Proposed mechanism(s) of liver damage. [column 'MEC' in source]
- condition label: human
measurement name: Hepatotoxicity (mechanism)

- molecule: "O=C(O)c1cc(/N=N/c2ccc(S(=O)(=O)Nc3ccccn3)cc2)ccc1O [SULFASALAZINE]"
  value observed: "Allergic"
- molecule: "Cc1cnc(C(=O)NCCc2ccc(S(=O)(=O)NC(=O)NC3CCCCC3)cc2)cn1 [GLIPIZIDE]"
  value observed: "Allergic"
- molecule: "CC[C@@]1(O)C[C@H](O[C@H]2C[C@H](N(C)C)[C@H](O[C@H]3C[C@H](O)[C@H](O[C@H]4CCC(=O)[C@H](C)O4)[C@H](C)O3)[C@H](C)O2)c2c(cc3c(c2O)C(=O)c2c(O)cccc2C3=O)[C@H]1C(=O)OC [ACLARUBICIN]"
  value observed: "Dose-dependant"
- molecule: "Cc1nc2ccc(CN(C)c3ccc(C(=O)N[C@@H](CCC(=O)O)C(=O)O)s3)cc2c(=O)[nH]1 [RALTITREXED]"
  value observed: "Dose-dependant"
- molecule: "CN1C(=O)OC(C)(C)C1=O [TRIMETHADIONE]"
  value observed: "Allergic"
- molecule: "CCOc1ccc(NC(C)=O)cc1 [PHENACETIN]"
  value observed: "Dose-dependant"
- molecule: "Cc1cc(CC(=O)O)n(C)c1C(=O)c1ccc(Cl)cc1 [ZOMEPIRAC]"
  value observed: "Allergic"
- molecule: "CC(C)(S)[C@@H](N)C(=O)O [PENICILLAMINE]"
  value observed: "Allergic"

Please supply the value of reported Hepatotoxicity (mechanism) for the item CN(C)CCCN1c2ccccc2CCc2ccc(Cl)cc21 [CLOMIPRAMINE] Allergic

Please supply the value of reported Hepatotoxicity (mechanism) for the item Nc1ccc(S(N)(=O)=O)cc1 [SULFANILAMIDE] Allergic

Please supply the value of reported Hepatotoxicity (mechanism) for the item CC(C)c1c(C(=O)Nc2ccccc2)c(-c2ccccc2)c(-c2ccc(F)cc2)n1CC[C@@H](O)C[C@@H](O)CC(=O)O [ATORVASTATIN] Allergic

Please supply the value of reported Hepatotoxicity (mechanism) for the item CCc1cc2c(s1)N(C)C(=O)CN=C2c1ccccc1Cl [CLOTIAZEPAM] Allergic

Please supply the value of reported Hepatotoxicity (mechanism) for the item CC1=C(/C=C/C(C)=C/C=C/C(C)=C\C(=O)O)C(C)(C)CCC1 [ISOTRETINOIN] Dose-dependant

Please supply the value of reported Hepatotoxicity (mechanism) for the item CC(c1cc2ccccc2s1)N(O)C(N)=O (centres undefined) [ZILEUTON] Dose-dependant

* * *

- condition label: human
measurement name: Hepatotoxicity (granulomatous hepatitis)

- compound: "Cc1ccc(Cl)c(Nc2ccccc2C(=O)O)c1Cl [MECLOFENAMIC ACID]"
  Hepatotoxicity (granulomatous hepatitis): 0
- compound: "Clc1ccc(C(c2ccccc2Cl)C(Cl)Cl)cc1 (centres undefined) [MITOTANE]"
  Hepatotoxicity (granulomatous hepatitis): 0
- compound: "CC(C)(C)C(=O)OCOC(=O)[C@@H]1N2C(=O)[C@@H](NC(=O)[C@H](N)c3ccccc3)[C@H]2SC1(C)C [PIVAMPICILLIN]"
  Hepatotoxicity (granulomatous hepatitis): 0

Please supply the value of reported Hepatotoxicity (granulomatous hepatitis) for the item C[C@H]1C[C@@H]2[C@H]([C@@H](O)C[C@@]3(C)[C@H]2CC[C@]3(O)C(=O)CO)[C@@]2(C)C=CC(=O)C=C12 [METHYLPREDNISOLONE] 0

* * *

- experiment: Highest frequency of acute liver toxicity observed during clinical trials, expressed as a percentage. [column '% AIGUE' in source]
- condition label: human
measurement name: Hepatotoxicity (acute) (%)
Could you give me the number in %? Just the number is fine.

Study these solved cases before continuing.
- molecule: "O=C(c1cc(O)c(O)c(O)c1)c1ccc(O)c(O)c1O"
  measurement name: "Hepatotoxicity (acute)"
  unit label: "%"
  value observed: 0
- molecule: "Nc1ncnc2c1ncn2CCOCP(=O)(O)O"
  measurement name: "Hepatotoxicity (acute)"
  unit label: "%"
  value observed: 7.4
- molecule: "O=C1OCCN1/N=C/c1ccc([N+](=O)[O-])o1"
  measurement name: "Hepatotoxicity (acute)"
  unit label: "%"
  value observed: 0
- molecule: "CN1Cc2c(N)cccc2C(c2ccccc2)C1 (stereo not given)"
  measurement name: "Hepatotoxicity (acute)"
  unit label: "%"
  value observed: 0
- molecule: "NCC[C@H](O)C(=O)N[C@@H]1C[C@H](N)[C@@H](O[C@H]2O[C@H](CN)[C@@H](O)[C@H](O)[C@H]2O)[C@H](O)[C@H]1O[C@H]1O[C@H](CO)[C@@H](O)[C@H](N)[C@H]1O"
  measurement name: "Hepatotoxicity (acute)"
  unit label: "%"
  value observed: 0

Please supply the value of reported Hepatotoxicity (acute) for the item CN(C)CC/C=C1\c2ccccc2CSc2ccccc21 [DOTHIEPIN] 0

Please supply the value of reported Hepatotoxicity (acute) for the item CN(C)CC(Oc1ccccc1)Oc1ccccc1 0
